The following compounds are listed with their measured IC50 values.
- Study Target: Melanin-concentrating hormone receptor 1 (Homo sapiens)
- Sequence (Q99705 whole entry): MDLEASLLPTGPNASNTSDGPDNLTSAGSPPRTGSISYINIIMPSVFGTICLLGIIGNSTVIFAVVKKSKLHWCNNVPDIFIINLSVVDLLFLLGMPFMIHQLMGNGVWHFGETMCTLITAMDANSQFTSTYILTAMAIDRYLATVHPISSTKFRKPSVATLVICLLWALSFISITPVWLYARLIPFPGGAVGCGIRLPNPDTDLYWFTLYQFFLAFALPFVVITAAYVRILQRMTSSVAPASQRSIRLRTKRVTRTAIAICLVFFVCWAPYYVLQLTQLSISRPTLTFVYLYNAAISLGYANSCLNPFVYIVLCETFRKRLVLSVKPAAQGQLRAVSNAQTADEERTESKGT
- Experimental Protocol: Antagonist activity at human MCHR1 expressed in HEK293 cells assessed as inhibition of MCH-stimulated Ca2+ influx preincubated for 120 mins followed by MCH challenge by FLIPR assay
Assay Endpoint: IC50 (nM)

[[record]]
smi = "COc1cc(N2Cc3cn(-c4ccc(Cl)cc4)nc3C2=O)ccc1OCC(C)(C)O"
study_target = "Melanin-concentrating hormone receptor 1 (Homo sapiens)"
endpoint_result = 1170

[[record]]
smi = "COc1cc(N2Cc3cn(-c4ccc(Cl)cc4)nc3C2=O)ccc1OCCN1CCCC1"
study_target = "Melanin-concentrating hormone receptor 1 (Homo sapiens)"
endpoint_result = 3060

[[record]]
smi = "CN[C@H]1CCN(c2ccc(N3Cc4cn(-c5ccc(Cl)cc5)nc4C3=O)cn2)C1"
study_target = "Melanin-concentrating hormone receptor 1 (Homo sapiens)"
endpoint_result = 241

[[record]]
smi = "COc1cc(-n2cnc3cc(-c4ccc(Cl)cc4)sc3c2=O)ccc1OCC(C)(C)O"
study_target = "Melanin-concentrating hormone receptor 1 (Homo sapiens)"
endpoint_result = 13


====

- System: Plasma
- Experimental Protocol: Plasma concentration in Sprague-Dawley rat assessed as 6-(4-chlorophenyl)-3-(4-(2-hydroxy-2-methylpropoxy)-3-methoxyphenyl)thieno[3,2-d]pyrimidin-4(3H)-one at 10 mg/kg, po qd measured at 20 hrs post dose
- Assay type: ADME, organism-based
- Test Parameters: in vivo
Assay Endpoint: concentration

[[record]]
smi = "COc1cc(-n2cnc3cc(-c4ccc(Cl)cc4)sc3c2=O)ccc1OCC(C)(C)OC(=O)CN"
endpoint_result = "546 nM"


====

- System: Brain
- Experimental Protocol: Drug uptake in Sprague-Dawley rat brain assessed as 2-(4-chlorophenyl)-5-(4-(2-hydroxy-2-methylpropoxy)-3-methoxyphenyl)-4,5-dihydropyrrolo[3,4-c]pyrazol-6(2H)-one at 30 mg/kg, po qd measured at 20 hrs post dose
- Format: ADME, organism-based
- Test Parameters: in vivo, read-out: Drug uptake
Assay Endpoint: concentration (nM)

[[record]]
smi = "COc1cc(N2Cc3cn(-c4ccc(Cl)cc4)nc3C2=O)ccc1OCC(C)(C)OC(=O)CN"
study_target = "Brain"
assay_endpoint = "concentration"
endpoint_result = 1060


====

- Experimental Protocol: Drug uptake in Sprague-Dawley rat brain at 10 mg/kg, po qd measured at 20 hrs post dose
- Type: ADME, organism-based
- Test Parameters: read-out: Drug uptake
Assay Endpoint: concentration at 20 h

[[record]]
smi = "CN[C@H]1CCN(c2ccc(N3Cc4cn(-c5ccc(Cl)cc5)nc4C3=O)cn2)C1"
assay_endpoint = "concentration at 20 h"
endpoint_result = "2770 nM"


====

- Experimental Protocol: Fraction unbound in Sprague-Dawley rat plasma at 10 mg/kg, po qd
- Assay type: ADME, organism-based
Assay Endpoint: fraction unbound

[[record]]
smi = "CN[C@H]1CCN(c2ccc(N3Cc4cn(-c5ccc(Cl)cc5)nc4C3=O)cn2)C1"
endpoint_result = 0.042


====

- Experimental Protocol: Fraction unbound in Sprague-Dawley rat plasma at 3 mg/kg, po qd
- Format: ADME, organism-based
Assay Endpoint: fraction unbound

[[record]]
smi = "CN[C@H]1CCN(c2ccc(N3Cc4cn(-c5ccc(Cl)cc5)nc4C3=O)cn2)C1"
assay_endpoint = "fraction unbound"
endpoint_result = 0.042


====

- Experimental Protocol: Lipophilicity, log P of the compound by HPLC analysis
- Assay type: physicochemical
Known logP of a selection of compounds
Assay Endpoint: logP

[[record]]
smi = "COc1cc(N2Cc3cn(-c4ccc(Cl)cc4)nc3C2=O)ccc1OCCN1CCCC1"
endpoint_result = 2.8

[[record]]
smi = "COc1cc(N2Cc3nn(-c4ccc(Cl)cc4)nc3C2=O)ccc1OCCN1CCCC1"
endpoint_result = 3.3

[[record]]
smi = "COc1cc(-n2cnc3cc(-c4ccc(Cl)cc4)sc3c2=O)ccc1OCCN1CCCC1"
endpoint_result = 3.5


====

- Experimental Protocol: Drug uptake in Sprague-Dawley rat brain at 15 mg/kg, po qd measured at 20 hrs post dose
- Type: ADME, organism-based
- Test Parameters: read-out: Drug uptake
Assay Endpoint: concentration at 20 h (nM)

[[record]]
smi = "COc1cc(-n2cnc3cc(-c4ccc(Cl)cc4)sc3c2=O)ccc1OCCN1CCCC1"
endpoint_result = 654


====

- Study Target: Voltage-gated inwardly rectifying potassium channel KCNH2 (Homo sapiens, UniProt Q12809)
- Sequence (Q12809 whole entry): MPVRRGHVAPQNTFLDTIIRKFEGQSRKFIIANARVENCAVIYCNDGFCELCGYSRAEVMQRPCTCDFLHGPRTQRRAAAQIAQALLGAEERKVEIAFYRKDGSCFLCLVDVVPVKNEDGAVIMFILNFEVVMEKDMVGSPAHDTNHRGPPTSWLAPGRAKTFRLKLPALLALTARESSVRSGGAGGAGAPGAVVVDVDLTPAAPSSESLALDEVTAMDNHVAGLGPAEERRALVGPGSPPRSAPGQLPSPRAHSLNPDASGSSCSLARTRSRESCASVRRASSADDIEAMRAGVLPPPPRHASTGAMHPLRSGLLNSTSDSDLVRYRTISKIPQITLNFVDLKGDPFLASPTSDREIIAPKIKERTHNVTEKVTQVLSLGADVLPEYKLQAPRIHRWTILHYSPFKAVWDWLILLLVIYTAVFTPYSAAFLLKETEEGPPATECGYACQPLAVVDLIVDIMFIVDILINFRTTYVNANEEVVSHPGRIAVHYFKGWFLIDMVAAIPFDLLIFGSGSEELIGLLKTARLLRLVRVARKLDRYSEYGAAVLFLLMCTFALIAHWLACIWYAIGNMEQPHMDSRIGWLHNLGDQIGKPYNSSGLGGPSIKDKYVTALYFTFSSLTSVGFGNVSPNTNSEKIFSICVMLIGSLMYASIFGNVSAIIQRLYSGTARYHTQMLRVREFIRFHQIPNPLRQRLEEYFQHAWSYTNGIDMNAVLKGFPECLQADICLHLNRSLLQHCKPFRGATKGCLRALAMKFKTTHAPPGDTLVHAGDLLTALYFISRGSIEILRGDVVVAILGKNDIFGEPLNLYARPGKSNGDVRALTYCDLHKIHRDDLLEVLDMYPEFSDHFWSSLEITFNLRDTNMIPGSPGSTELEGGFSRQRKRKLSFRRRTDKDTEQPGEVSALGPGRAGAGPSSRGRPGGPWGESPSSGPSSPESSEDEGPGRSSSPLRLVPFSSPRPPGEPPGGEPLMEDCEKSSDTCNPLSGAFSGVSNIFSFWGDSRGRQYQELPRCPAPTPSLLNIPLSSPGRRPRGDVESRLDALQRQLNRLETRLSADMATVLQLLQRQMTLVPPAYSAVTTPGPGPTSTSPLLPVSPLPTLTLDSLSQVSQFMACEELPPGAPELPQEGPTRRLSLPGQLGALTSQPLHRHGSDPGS
- Experimental Protocol: Inhibition of human ERG expressed in CHO cells by automated whole-cell patch clamp electrophysiology system
pIC50: −log10 of the molar value.
Known pIC50 of a selection of compounds
Assay Endpoint: pIC50

[[record]]
smi = "COc1cc(N2Cc3cn(-c4ccc(Cl)cc4)nc3C2=O)ccc1N1C[C@H](O)[C@@H](O)C1"
assay_endpoint = "pIC50"
endpoint_result = "< 4.52"

[[record]]
smi = "COc1cc(N2Cc3cn(-c4ccc(Cl)cc4)nc3C2=O)ccc1N1CC[C@@H](O)C1"
assay_endpoint = "pIC50"
endpoint_result = "< 4.10"


====

- Experimental Protocol: Fraction unbound in Sprague-Dawley rat plasma at 15 mg/kg, po qd
- Format: ADME, organism-based
Assay Endpoint: fraction unbound

[[record]]
smi = "COc1cc(-n2cnc3cc(-c4ccc(Cl)cc4)sc3c2=O)ccc1OCCN1CCCC1"
endpoint_result = 0.012


====

- Experimental Protocol: Displacement of [Phe13, [125I]Tyr19]-MCH from human MCHR1 E4Q/A5T double mutant expressed in HEK293 cell membranes after 90 mins by scintillation counting analysis
Ki vs 30 nM: less than gives y; not less than gives n.

[[record]]
molecule = "COc1cc(N2Cc3cn(-c4ccc(Cl)cc4)nc3C2=O)ccc1N1CC[C@@H](O)C1"
category = "y"

[[record]]
molecule = "COc1cc(N2Cc3nn(-c4ccc(Cl)cc4)cc3C2=O)ccc1OC[C@H](O)C1CC1"
category = "n"

[[record]]
molecule = "COc1cc(N2Cc3nn(-c4ccc(Cl)cc4)cc3C2=O)ccc1OCC(C)O (centres undefined)"
category = "n"

[[record]]
molecule = "CN[C@@H]1CCN(c2ccc(N3Cc4cn(-c5ccc(Cl)cc5)nc4C3=O)cn2)C1"
category = "y"

[[record]]
molecule = "COc1cc(N2Cc3cn(-c4ccc(Cl)cc4)nc3C2=O)ccc1OCC(C)(C)O"
category = "y"

[[record]]
molecule = "CNC1CCN(c2ccc(N3Cc4cn(-c5ccc(Cl)cc5)nc4C3=O)cc2)C1 (centres undefined)"
category = "y"

[[record]]
molecule = "COc1cc(N2Cc3nn(-c4ccc(Cl)cc4)nc3C2=O)ccc1OCC(C)(C)O"
category = "n"

[[record]]
molecule = "CN[C@H]1CCN(c2ccc(N3Cc4cn(-c5ccc(Cl)cc5)nc4C3=O)cn2)C1"
category = "y"

[[record]]
molecule = "CC(C)(C)NC1CCN(c2ccc(N3Cc4cn(-c5ccc(Cl)cc5)nc4C3=O)cn2)C1 (centres undefined)"
category = "y"


====

- Experimental Protocol: Displacement of [Phe13, [125I]Tyr19]-MCH from human MCHR1 E4Q/A5T double mutant expressed in HEK293 cell membranes after 90 mins by scintillation counting analysis
Ki strictly under 10 nM means 1; at 10 nM or over means -1.

[[record]]
compound = "COc1cc(N2Cc3cn(-c4ccc(Cl)cc4)nc3C2=O)ccc1OC[C@H](O)C1CC1"
category = 1

[[record]]
compound = "COc1cc(N2Cc3nn(-c4ccc(Cl)cc4)nc3C2=O)ccc1OCC(O)C1CC1 (racemic)"
category = -1

[[record]]
compound = "COc1cc(N2Cc3cn(-c4ccc(Cl)cc4)nc3C2=O)ccc1OCC(C)O (stereo not drawn)"
category = -1

[[record]]
compound = "N[C@H]1CCN(c2ccc(N3Cc4cn(-c5ccc(Cl)cc5)nc4C3=O)cn2)C1"
category = 1

[[record]]
compound = "COc1cc(N2Cc3cn(-c4ccc(Cl)cn4)nc3C2=O)ccc1OCC(C)(C)O"
category = -1

[[record]]
compound = "COc1cc(-n2cnc3cc(-c4ccc(Cl)cc4)sc3c2=O)ccc1OCCN1CCCC1"
category = 1

[[record]]
compound = "CC(=O)N(C)C1CCN(c2ccc(N3Cc4cn(-c5ccc(Cl)cc5)nc4C3=O)cn2)C1 (stereo not drawn)"
category = 1

[[record]]
compound = "CN(C)[C@H]1CCN(c2ccc(N3Cc4cn(-c5ccc(Cl)cc5)nc4C3=O)cn2)C1"
category = 1


====

- Experimental Protocol: Displacement of [Phe13, [125I]Tyr19]-MCH from human MCHR1 E4Q/A5T double mutant expressed in HEK293 cell membranes after 90 mins by scintillation counting analysis
pKi: −log10 of the molar value.
Binary call on pKi: Y from 8 upward, N beneath that.

[[record]]
smi = "COc1cc(N2Cc3nn(-c4ccc(Cl)cc4)nc3C2=O)ccc1OCCN1CCCC1"
category = "Y"

[[record]]
smi = "COc1cc(N2Cc3nn(-c4ccc(Cl)cc4)cc3C2=O)ccc1OCC(C)(C)O"
category = "N"

[[record]]
smi = "COc1cc(N2Cc3cn(-c4ccc(Cl)cc4)nc3C2=O)ccc1OCCN1CCCC1"
category = "Y"

